B1: tRNA (parent)
chain: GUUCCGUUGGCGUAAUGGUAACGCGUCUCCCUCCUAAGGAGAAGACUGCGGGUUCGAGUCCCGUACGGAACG

Variants of: B1
Assay: yeast fitness relative to wild type (ratio to wild type); higher = fitter; tRNA-Arg(CCU), competitive growth, 37 C, YPD
Fewer inactive variants are shown than the library holds.
Mark yes for reported yeast fitness of 0.6 or greater; mark no for anything smaller.

INSERT INTO results (mutant_code, class) VALUES
  ('A21U A42C C62G', 'no'),
  ('C11U U28C C29G C60A', 'no'),
  ('C24A U26G A43C C62G G63A C66G A69G', 'no'),
  ('U8C G17A A70U', 'no'),
  ('A45U G52A U64C A69U', 'no'),
  ('C27U A43C U64C', 'yes'),
  ('C5U G25A A70U', 'yes'),
  ('A20U G38C C49A', 'no'),
  ('C11G C34U G41A', 'no'),
  ('C27A G58A C66G', 'no'),
  ('A45C A57U', 'yes'),
  ('U35A A57U C61U', 'no'),
  ('A14G C31A A43G', 'yes'),
  ('C4A G18C C29A C31A A36U', 'no'),
  ('C29U A43U A70C', 'yes'),
  ('C55U G63A', 'yes'),
  ('C5G A20U', 'yes'),
  ('C5U A42U', 'yes'),
  ('A14U C30U C34U A45U', 'no'),
  ('A20G A43C G56A A57U', 'no'),
  ('U3A A14G C55U G63C', 'no'),
  ('U7A C29U C31A', 'no'),
  ('C27U C66G', 'yes'),
  ('C4U U28C A36C G51A C66A', 'no'),
  ('G17A A45U G52A A70U', 'no'),
  ('C22U C34U', 'yes'),
  ('A15G U35A A70U', 'no'),
  ('C11A U59C C61A C62U', 'no'),
  ('C27G A42C C49G C61G', 'yes'),
  ('C5U C31G A57U', 'no'),
  ('A14G A15U G25C U54A', 'no'),
  ('C5G C11G G12A C46U', 'no'),
  ('C27G U28A C34U', 'no'),
  ('U8A G10A A43C', 'yes'),
  ('A40U A42G G63A', 'no'),
  ('G23A C30U C55A G63A', 'no'),
  ('G9C A40U C66U', 'yes'),
  ('G39C A70C', 'yes'),
  ('A21U A42G G50C U59C', 'no'),
  ('U13C C22G G68U', 'no'),
  ('C31U C34U G38A C46U', 'no'),
  ('C30U C31G A37U G48C', 'no'),
  ('C11U A40C G51A C61U A69C', 'no'),
  ('U3A G12C G58A C66U', 'no'),
  ('G38A C55G', 'no'),
  ('U2C C24G U26A C31G', 'yes'),
  ('A14U G48A A70U', 'yes'),
  ('G12A A43G G48C', 'no'),
  ('U35A A36C C66A', 'no'),
  ('C29G G41A C61U', 'no'),
  ('C11A A40G C49G C62G', 'yes'),
  ('C4A A40C G41C', 'no'),
  ('U26A C30G A37C U59A', 'no'),
  ('G23A A36G C55G G63A A69U', 'no'),
  ('G9A G17C C29G', 'no'),
  ('U3G A15G A21U G48A', 'no'),
  ('C5G C49A', 'yes'),
  ('G23C U32A C66U', 'no'),
  ('A21C G56A', 'yes'),
  ('G17A G25A', 'yes'),
  ('U3C C27G C30U G67A', 'no'),
  ('C5U A20U C30G C66U', 'no'),
  ('C11U U35C A36U C46U G51A', 'no'),
  ('G6C U19C C29U G38C U47C', 'no'),
  ('A21G C60G A70C', 'no'),
  ('A14C G25A C33G A36U A45G G52C', 'no'),
  ('G44A A57U', 'yes'),
  ('U13G A40G C61U G63C', 'no'),
  ('U2G G48C G52C C62G C66U', 'no'),
  ('G6C U35C', 'yes'),
  ('A43U G48C U54C C60A U64A', 'no'),
  ('C11A A45U G50U U54C U64A', 'no'),
  ('G6A C24U U54G A65U', 'no'),
  ('C24G A45U', 'no'),
  ('A21U A70C', 'yes'),
  ('A36U G39C', 'yes'),
  ('C5A G18A', 'yes'),
  ('C5U A21U C31G A37C C66U', 'no'),
  ('A15C U19A G48A C62G U64C', 'no'),
  ('U8A C27G G39A C46U G67A', 'no'),
  ('A42C C61U', 'yes'),
  ('C4G U28A G39A A65U G68A', 'no'),
  ('C4G U16A A36C A57C C61A U64C', 'no'),
  ('A40U A70C', 'yes'),
  ('C31G C49U U54G', 'no'),
  ('A14G C31U A42G C62U A69C', 'no'),
  ('C4G C11G C34U G38A G44C', 'no'),
  ('C4G A36G A45C C61U C62G', 'no');

Origin of the recorded values: the RNAGym collection of RNA variant scans (doi:10.1126/science.aae0568)
